assay: Shake-flask drug solubility in absence of excipient (reference solubility); format: physicochemical; settings: compendial media (0.1 N HCl pH 1; phosphate buffer pH 6.8), 37 °C, thermodynamic from solid, compendial media, 0.5 h, read-out: Solubility of pure drug
metric: solubility at 0.5 h (mg/mL)
Give the value, in units of mg/mL, as a plain number.

Tell me solubility at 0.5 h reported for NC(=O)N1c2ccccc2C=Cc2ccccc21 [CBZ, Carbamazepine]
0.35

====

# solubility at 24 h per record follows
assay: Shake-flask drug solubility in absence of excipient (reference solubility); type: physicochemical; settings: aqueous buffer, thermodynamic from solid, Phosphate buffer pH 6.8 (compendial), 24 h, 37°C, mean ± SD, read-out: Reference solubility
The answer is to be given in µg/mL; state only the numeric part.

> print(dat)
                                   molecule  unit.label  assay.value
1  OCCN(CCO)c1nc(N2CCCCC2)c2nc(N(CCO)CCO)nc(N3CCCCC3)c2n1       µg/mL            5
2  CC(C)Cc1ccc(C(C)C(=O)O)cc1 (centres unmarked)       µg/mL         5500

Specify measured solubility at 24 h for NC(=O)N1c2ccccc2C=Cc2ccccc21 [CBZ, Carbamazepine] .
227

Please report the measured solubility at 24 h for CC(=O)Nc1ccc(O)cc1
15000
